test-method-notes: log P by HPLC on reversed-phase column (EEC Directive 79/831 Annex V.A8)
Format: physicochemical
details: reversed-phase HPLC column (C18); neutral range, pH 7.8, HPLC C18, 43° C.; read-out: log P (neutral)
Use 2 as the dividing line for chromatographic logP, with the line itself on the y side and lower values as n.

As a guide, the following entries are already answered.
smiles-data: Cn1cncc1C(=O)OC(C)(C)C
answer-label: n
//
smiles-data: CCOC(=O)c1ncn(C)c1C
answer-label: n
//
smiles-data: Cn1c(C(=O)OC(C)(C)C)cnc1Br
answer-label: y
//
smiles-data: CCc1[nH]c(-c2c(F)cccc2F)nc1C(=O)O
answer-label: n
//
smiles-data: Cn1cc(C(=O)OC(C)(C)C)nc1-c1c(F)cccc1F
answer-label: y

-- ask Please indicate if the recorded chromatographic logP for Cn1cc(C(=O)O)nc1-c1c(F)cccc1F meets or exceeds 2.
-- reply y

-- ask Please indicate if the recorded chromatographic logP for Cn1c(C(=O)OC(C)(C)C)cnc1-c1c(F)cccc1F meets or exceeds 2.
-- reply y

-- ask Please indicate if the recorded chromatographic logP for CCOC(=O)c1nc(Br)n(C)c1C meets or exceeds 2.
-- reply n

###

Reported chromatographic logP values for a set of compounds
test-method-notes: log P by HPLC on reversed-phase column (EEC Directive 79/831 Annex V.A8)
Format: physicochemical
details: reversed-phase HPLC column (C18); acidic range, pH 2.7, HPLC C18, 43° C.; read-out: log P (acidic)

smiles-data: CCOC(=O)c1nc(-c2c(F)cccc2F)[nH]c1CC
property-label: chromatographic logP
observed-measurement: 1.73

smiles-data: COc1cc(C(=O)O)nn1-c1ccccc1Cl
property-label: chromatographic logP
observed-measurement: 1.63

// next item, chromatographic logP requested
-- ask Output measured chromatographic logP for this item: Cn1c(C(=O)O)cnc1-c1c(F)cccc1F
-- reply 0.46

###

Test system: Phaedon cochleariae
test-method-notes: Phaedon cochleariae spray test
Assay type: in vivo
details: foliar, 168 h, Chinese cabbage leaf discs, larvae, after 7 days, read-out: efficacy
property-label: pest or weed control at 500 g/ha (%)
Just the number please, in %, no unit attached.

Here's what some known entries look like.
compound: Cc1ccc(F)cc1S(=O)(=O)NC(=O)c1cc(C)n(-c2ncccc2Br)n1 [Example 303]
pest or weed control at 500 g/ha / %: 83

compound: Cn1cc(C(=O)NS(=O)(=O)c2ccccc2Br)nc1-c1c(F)cccc1Cl [Example 152]
pest or weed control at 500 g/ha / %: 100

compound: Cn1cc(C(=O)NS(=O)(=O)c2c(Br)cccc2C(F)(F)F)nc1-c1c(F)cccc1F [Example 373]
pest or weed control at 500 g/ha / %: 100

compound: Cc1ccc(F)cc1S(=O)(=O)NC(=O)c1cn(C)c(-c2ccccc2Cl)n1 [Example 425]
pest or weed control at 500 g/ha / %: 100

compound: COc1ccc(Cl)c(S(=O)(=O)NC(=O)c2nc(-c3c(F)cccc3F)n(C)c2C)c1 [Example 334]
pest or weed control at 500 g/ha / %: 100

-- ask Output measured pest or weed control at 500 g/ha for this item: Cc1c(Cl)cccc1S(=O)(=O)NC(=O)c1cn(C)c(-c2c(F)cccc2F)n1 [Example 316]
-- reply 100

-- ask Output measured pest or weed control at 500 g/ha for this item: Cc1c(F)cccc1S(=O)(=O)NC(=O)c1cn(C)c(-c2c(F)cccc2F)n1 [Example 318]
-- reply 100

###

Tested on: Phaedon cochleariae
test-method-notes: Phaedon cochleariae spray test
Format: in vivo
details: foliar, 168 h, Chinese cabbage leaf discs, larvae, after 7 days, read-out: efficacy
property-label: pest or weed control at 500 g/ha (%)
Just the number please, in %, no unit attached.

Here's what some known entries look like.
smiles-data: Cc1cccc(OC(F)(F)F)c1S(=O)(=O)NC(=O)c1cn(C)c(-c2c(F)cccc2F)n1
pest or weed control at 500 g/ha / %: 100

smiles-data: Cn1cc(C(=O)NS(=O)(=O)c2ccccc2Cl)nc1-c1c(F)cccc1Cl
pest or weed control at 500 g/ha / %: 100

smiles-data: Cn1cc(C(=O)NS(=O)(=O)c2c(Cl)cccc2Cl)nc1-c1ccccc1Cl
pest or weed control at 500 g/ha / %: 83

smiles-data: CCc1ccccc1S(=O)(=O)NC(=O)c1cn(C)c(-c2ncccc2Cl)n1
pest or weed control at 500 g/ha / %: 100

smiles-data: Cc1cccc(C(F)(F)F)c1S(=O)(=O)NC(=O)c1cn(C)c(-c2ncccc2Cl)n1
pest or weed control at 500 g/ha / %: 100

smiles-data: Cc1ccc(C)c(S(=O)(=O)NC(=O)c2cn(C)c(-c3c(F)cccc3F)n2)c1
pest or weed control at 500 g/ha / %: 100

smiles-data: Cn1cc(C(=O)NS(=O)(=O)c2cccc(Cl)c2)nc1-c1c(Cl)cccc1Cl
pest or weed control at 500 g/ha / %: 100

smiles-data: COc1ccc(Cl)c(S(=O)(=O)NC(=O)c2cn(C)c(-c3ncccc3Cl)n2)c1
pest or weed control at 500 g/ha / %: 83

-- ask Under Phaedon cochleariae, report pest or weed control at 500 g/ha for Cn1cc(C(=O)NS(=O)(=O)c2ccccc2Cl)nc1-c1c(Cl)cccc1Cl
-- reply 100

-- ask Under Phaedon cochleariae, report pest or weed control at 500 g/ha for CCc1cccc(F)c1S(=O)(=O)NC(=O)c1cn(C)c(-c2c(F)cccc2F)n1
-- reply 100

-- ask Under Phaedon cochleariae, report pest or weed control at 500 g/ha for Cn1cc(C(=O)NS(=O)(=O)c2c(Cl)cccc2C(F)(F)F)nc1-c1cccc(Cl)c1Cl
-- reply 100

-- ask Under Phaedon cochleariae, report pest or weed control at 500 g/ha for Cc1ccccc1S(=O)(=O)NC(=O)c1cn(C)c(-c2ncccc2Br)n1
-- reply 100

-- ask Under Phaedon cochleariae, report pest or weed control at 500 g/ha for Cn1cc(C(=O)NS(=O)(=O)c2ccccc2Cl)nc1-c1c(F)cc(F)cc1F
-- reply 100

###

System: Phaedon cochleariae
test-method-notes: Phaedon cochleariae spray test
Type: in vivo
details: foliar, 168 h, Chinese cabbage leaf discs, larvae, after 7 days, read-out: efficacy
property-label: pest or weed control at 500 g/ha (%)
Just the number please, in %, no unit attached.

smiles-data: COc1cc(S(=O)(=O)NC(=O)c2cc(C)n(-c3ncccc3Br)n2)c(C)cc1Br
target-desc: Phaedon cochleariae
property-label: pest or weed control at 500 g/ha
quantity-unit: %
observed-measurement: 100

smiles-data: Cc1cccc(S(=O)(=O)NC(=O)c2cn(C)c(-c3c(F)cccc3F)n2)c1
target-desc: Phaedon cochleariae
property-label: pest or weed control at 500 g/ha
quantity-unit: %
observed-measurement: 83

smiles-data: CCc1ccccc1S(=O)(=O)NC(=O)c1cn(C)c(-c2nccc3ccccc23)n1
target-desc: Phaedon cochleariae
property-label: pest or weed control at 500 g/ha
quantity-unit: %
observed-measurement: 100

smiles-data: Cc1cccc(C(F)(F)F)c1S(=O)(=O)NC(=O)c1cn(C)c(-c2c(F)cccc2F)n1
target-desc: Phaedon cochleariae
property-label: pest or weed control at 500 g/ha
quantity-unit: %
observed-measurement: 100

smiles-data: COc1ccc(Br)c(S(=O)(=O)NC(=O)c2cn(C)c(-c3c(F)cccc3Cl)n2)c1
target-desc: Phaedon cochleariae
property-label: pest or weed control at 500 g/ha
quantity-unit: %
observed-measurement: 100

-- ask Under Phaedon cochleariae, report pest or weed control at 500 g/ha for Cc1ccccc1S(=O)(=O)NC(=O)c1cn(C)c(-c2cc(Cl)ccc2Cl)n1
-- reply 100

-- ask Under Phaedon cochleariae, report pest or weed control at 500 g/ha for Cc1cccc(C)c1S(=O)(=O)NC(=O)c1cn(C)c(-c2ncccc2F)n1
-- reply 83

-- ask Under Phaedon cochleariae, report pest or weed control at 500 g/ha for Cn1cc(C(=O)NS(=O)(=O)c2ccc(Cl)cc2I)nc1-c1c(F)cccc1F
-- reply 100

-- ask Under Phaedon cochleariae, report pest or weed control at 500 g/ha for Cc1cc(Br)ccc1S(=O)(=O)NC(=O)c1cn(C)c(-c2ccccc2Cl)n1
-- reply 100

-- ask Under Phaedon cochleariae, report pest or weed control at 500 g/ha for CSc1cccc(Cl)c1S(=O)(=O)NC(=O)c1cn(C)c(-c2c(F)cccc2F)n1
-- reply 100

-- ask Under Phaedon cochleariae, report pest or weed control at 500 g/ha for Cc1ccccc1S(=O)(=O)NC(=O)c1cn(C)c(-c2cccc3ccccc23)n1
-- reply 100

###

test-method-notes: log P by HPLC on reversed-phase column (EEC Directive 79/831 Annex V.A8)
Format: physicochemical
details: reversed-phase HPLC column (C18); acidic range, pH 2.7, HPLC C18, 43° C.; read-out: log P (acidic)
property-label: chromatographic logP
No unit in the answer, only the number.

smiles-data: Cn1cc(C(=O)OC(C)(C)C)nc1Br
chromatographic logP: 2.41

-- ask Output measured chromatographic logP for this item: Cn1cnc(C(=O)OC(C)(C)C)c1
-- reply 0.63

-- ask Output measured chromatographic logP for this item: Cc1ccccc1S(=O)(=O)NC(=O)c1nc(-c2ccccc2Cl)n(C)c1Cl
-- reply 3.17

-- ask Output measured chromatographic logP for this item: CCOC(=O)c1cc(OC)n(-c2ccccc2Cl)n1
-- reply 2.61

-- ask Output measured chromatographic logP for this item: CCOC(=O)c1cc(O)n(-c2ccccc2Cl)n1
-- reply 1.75
